METHOD NOTES: Solubility tests in water
Format: physicochemical
Procedure: Solubility tests in water were performed on the new redox mediators in comparison with the standard PQ mediators.
READOUT: solubility (µg/mL)
Answer in µg/mL, number only, no unit symbol.

Data request, read-out solubility, for O=C1C(=O)c2cccnc2-c2ncccc21 [PQ, 1,10-phenanthroline-5,6-dione, reference compound]
2000
